- tgt: HLA-A*0206 (human)
- assay notes: competition with 125I-labelled standard peptide on purified HLA, gel filtration
- condition set: remark: other sources report otherwise
recorded endpoint: IC50 (nM)
Kindly answer with a numeric value in nM, unit omitted.

As a guide, the following entries are already answered.
binder	experimental result
VLAKELKFVV (modifications not checked) [peptide 63.0034 … (PAP.30.V10)]	86
LLFFWLDRSVL (modifications not checked) [peptide 63.0139 … (PAP.21)]	822

Next:
# input binder: FLNESYKHEQV (modifications not checked) [peptide 1419.55 … (PAP.92)] ; wanted: its IC50
381
